read-out: Monocyte Chemoattractant Protein-1 (MCP1), CCL2 (gene 6347); assay: BSK_3C_MCP1: BioMAP Diversity Plus: 3C Assay for Monocyte Chemoattractant Protein-1 (MCP1) Biomarker Activity (AID 2283017); details: primary human endothelial cells (HUVEC); actives raise or lower the signal
Activity calls are given as the source filed them. The calls were made as follows: active = hit-call score of the fitted dose curve at least 0.9, where 1 is the maximum; inactive = score below 0.9.
Select the matching outcome among 1 (yes) for active, 0 (no) for inactive

Consider the following illustrative entries.
C=C(C)[C@H]1CC=C(C)C(=O)C1 ... 0 (no)
c1ccc(Oc2ccccc2)cc1 ... 1 (yes)

# fetch the recorded call for `COc1ccc(OC)c(N=Nc2c(O)ccc3ccccc23)c1` here 1 (yes)

# fetch the recorded call for `CC(C)(N=C=O)c1cccc(C(C)(C)N=C=O)c1` here 0 (no)

# fetch the recorded call for `CCN(CC)C(=O)N(CC)CC` here 0 (no)

# fetch the recorded call for `CS(=O)(=O)c1ccc(C2=C(c3ccccc3)C(=O)OC2)cc1` here 0 (no)

# fetch the recorded call for `Oc1c(Cl)cc(Cl)c(Cl)c1Cc1c(O)c(Cl)cc(Cl)c1Cl` here 1 (yes)

# fetch the recorded call for `COc1cc(Cl)c(OC)cc1N` here 0 (no)

# fetch the recorded call for `CC(=O)Nc1ccc(C(=O)CCl)cc1` here 1 (yes)

# fetch the recorded call for `CCCCOC(=O)CCCCCCCC(=O)OCCCC` here 0 (no)

# fetch the recorded call for `C=C(C)C(=O)OCCOCCOCCOCCOC(=O)C(=C)C` here 0 (no)

# fetch the recorded call for `O=C1OC2(c3ccccc31)c1ccc(O)c(Br)c1Oc1c2ccc(O)c1Br` here 1 (yes)

# fetch the recorded call for CC(CN=Cc1ccccc1O)N=Cc1ccccc1O (stereo not drawn) here 0 (no)

* * *

target: Hepatocyte nuclear factor 6 (Homo sapiens); assay: ATG_HNF6_CIS: Attagene CIS-FACTORIAL HepG2 Assay for human Hepatocyte Nuclear Factor 6 (HNF6) (AID 2282952); conditions: HepG2 Attagene cis-factorial HNF6 reporter transcription; actives raise or lower the signal
Calls of active or inactive are those of the source. Rule for the calls: active = hit-call score of the fitted dose curve at least 0.9, where 1 is the maximum; inactive = score below 0.9.
Select the matching outcome among label 1 for active, label 0 for inactive

Consider the following illustrative entries.
CCO/C=C1\N=C(c2ccccc2)OC1=O ... label 0
ON=C1CCCCC1 ... label 0
C[N+](C)(C)CCCCCC[N+](C)(C)C ... label 0
O=C(CC(=O)c1ccccc1)c1ccccc1 ... label 1
O=C1NC2NC(=O)NC2N1 (stereo not drawn) ... label 0

# fetch the recorded call for `CC/C=C\CC/C=C/CO` here label 0

# fetch the recorded call for `CCCCCCCCN1CCCC1=O` here label 0

# fetch the recorded call for `O=[N+]([O-])c1ccc(O)cc1C(F)(F)F` here label 0

# fetch the recorded call for `C=CC(=O)OCCCC` here label 0

# fetch the recorded call for `CCOC(=O)COC(=O)c1cc(Oc2ccc(C(F)(F)F)cc2Cl)ccc1[N+](=O)[O-]` here label 0

* * *

assay: ATG_MRE_CIS: Attagene CIS-FACTORIAL HepG2 Assay for human Metal Responsive Element (MRE) (AID 2282954); conditions: HepG2 MRE cis-reporter transcription, Attagene multiplex; actives raise or lower the signal
Activity calls are given as the source filed them. How the source made its calls: active means hit-call score of the fitted dose curve at least 0.9, where 1 is the maximum; inactive means score below 0.9.
Select the matching outcome among active, inactive

Consider the following illustrative entries.
COc1ccc(OC)c(N=Nc2c(O)ccc3ccccc23)c1 ... inactive
COCCOCCOCCO ... inactive
CCCCCCCCC=CCCCCCCCC1=NCCN1CCO ... inactive
CCCCOC(=O)CCCCCCCC(=O)OCCCC ... inactive
CC1(C)O[C@@H]2C[C@H]3[C@@H]4CCC5=CC(=O)C=C[C@]5(C)[C@@]4(F)[C@@H](O)C[C@]3(C)[C@]2(C(=O)CO)O1 ... inactive

# fetch the recorded call for `O=[N+]([O-])c1cccc(Cl)c1` here inactive

# fetch the recorded call for O=C(c1ccccc1)C(O)c1ccccc1 (stereo not given) here inactive

# fetch the recorded call for CC(C)=CCCC(C)CC(=O)O (stereo not given) here inactive

# fetch the recorded call for `C[C@@H]1CCN(C(=O)[C@H](CCCN=C(N)N)NS(=O)(=O)c2cccc3c2NC[C@H](C)C3)[C@@H](C(=O)O)C1` here inactive

# fetch the recorded call for `COC(C)(C)CCO` here inactive

# fetch the recorded call for `CCOC(=O)CCc1ccccc1` here inactive

# fetch the recorded call for `FC(F)(F)COCC(F)(F)F` here inactive
